target: recombinant human CL receptor/RAMP1 (Homo sapiens, UniProt O60894+Q16602); experiment: Recombinant receptor functional assay (cAMP, HTRF); conditions: HEK 293 cells, 1.2 nM human α-CGRP, cAMP determination
Sequence (Q16602 23-461): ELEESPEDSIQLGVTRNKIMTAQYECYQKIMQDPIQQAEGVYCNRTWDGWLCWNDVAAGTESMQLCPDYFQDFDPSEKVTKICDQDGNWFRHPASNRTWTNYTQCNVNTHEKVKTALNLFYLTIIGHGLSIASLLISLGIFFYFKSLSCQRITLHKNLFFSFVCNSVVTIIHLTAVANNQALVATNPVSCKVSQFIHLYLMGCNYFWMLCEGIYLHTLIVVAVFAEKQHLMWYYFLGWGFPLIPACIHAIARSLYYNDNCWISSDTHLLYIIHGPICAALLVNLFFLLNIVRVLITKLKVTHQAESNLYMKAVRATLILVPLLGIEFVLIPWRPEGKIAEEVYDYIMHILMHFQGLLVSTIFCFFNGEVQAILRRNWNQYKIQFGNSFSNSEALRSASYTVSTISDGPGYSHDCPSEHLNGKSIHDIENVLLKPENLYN
Sequence (O60894 27-148): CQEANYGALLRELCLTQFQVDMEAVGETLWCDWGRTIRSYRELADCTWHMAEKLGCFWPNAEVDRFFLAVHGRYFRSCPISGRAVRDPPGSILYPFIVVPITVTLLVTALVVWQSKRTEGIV
Exercise: state measured pIC50 for each of the compounds provided.
// pIC50 here means minus log10 of the molar concentration (mol/L)

I'm curious: which pIC50 was measured for CC1C(c2cc(F)cc(F)c2F)CC(CC=Cc2cnc3c(c2)C[C@@]2(C3)C(=O)Nc3ncccc32)C(=O)N1CC(F)(F)F (some centres unmarked) tested on recombinant human CL receptor/RAMP1 (Homo sapiens, UniProt O60894+Q16602)? 8.14

I'm curious: which pIC50 was measured for C[C@@H]1[C@H](c2ccccc2)C[C@H](NS(=O)(=O)c2cnc3c(c2)C[C@@]2(C3)C(=O)Nc3ncccc32)C(=O)N1CC(F)(F)F tested on recombinant human CL receptor/RAMP1 (Homo sapiens, UniProt O60894+Q16602)? 5.43

Source of measurements: patent US9227972B2
